Test system: A549 NSCLC
Assay: NCI tumour cell line growth inhibition, 48 h
PROPERTY: TGI

Below, each entry is followed by its recorded TGI result.
>>> df
                                   compound  tested_system  property  observed
0  O=C1/C(=C\c2cccc(Oc3ccccc3)c2)S(=O)(=O)C(c2ccccc2)N1c1ccccc1Cl (centres undefined)     A549 NSCLC       TGI  > 100 µM
1         COC(=O)/C=C(\C)C(=O)N(C)c1ccccc1I     A549 NSCLC       TGI  > 100 µM
2  C(CCC[Te][Te]CCCCCCOC1CCCCO1)CCOC1CCCCO1 (centres undefined)     A549 NSCLC       TGI   41.5 µM

Now consider a different compound.
For the compound shown here, Cc1ccsc1/C=N/Nc1cc(C)c2cccc(C)c2n1 , give the reported TGI.
> 100 µM

// provenance: PubChem BioAssay (NCI)
